# yeast fitness per record follows
B1: tRNA (parent)
chain: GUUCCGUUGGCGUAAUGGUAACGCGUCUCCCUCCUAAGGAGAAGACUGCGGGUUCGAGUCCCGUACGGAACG

Variants of: B1
Assay: yeast fitness relative to wild type (ratio to wild type); higher = fitter; tRNA-Arg(CCU), competitive growth, 37 C, YPD
Fewer inactive variants are shown than the library holds.
Quick one: just the number, no unit, thanks!

These solved cases illustrate the format of a correct answer.
[[record]]
variant_string = "U28C A36C"
measured_quantity = "yeast fitness"
assay_result = 0.579

[[record]]
variant_string = "C4G A21C G23C A36U"
measured_quantity = "yeast fitness"
assay_result = 0.635


Then there is this variant:
Incoming: I am curious: what yeast fitness value has been reported for G38U A69C ?
Outgoing: 0.892
